Exercise: for every item that follows, state its recorded TGI.
Test system: UACC-257 melanoma
Method summary: NCI tumour cell line growth inhibition, 48 h
Give just the number in µM; leave the unit off.

Suppose we examine the compound Cc1nc2c(n1CCN(C)C)C(=O)c1ccccc1C2=O ; what TGI value has been reported? 27.1

Suppose we examine the compound COC(=S)OC1CC(n2cnc3c(N)ncnc32)OC1CO[Si](C)(C)C(C)(C)C (stereo not given) ; what TGI value has been reported? 72.8

Suppose we examine the compound Cc1ccc2c(c1)O/C(=C\c1ccc([N+](=O)[O-])o1)C2=O ; what TGI value has been reported? 3.31

* * *

System: NCI-H23 lung
Method summary: NCI tumour cell line growth inhibition, 48 h
Exercise: for every item that follows, state its recorded TGI.

Suppose we examine the molecule COc1cc(C2=NN(c3ccc(S(N)(=O)=O)cc3)C(c3ccc(Cl)cc3)C2)cc(OC)c1OC (stereo not given) ; what TGI value has been reported? > 100 µM

Suppose we examine the molecule Nc1ccc(-c2nc3cc(F)ccc3s2)cc1CO ; what TGI value has been reported? 42.1 µM

Suppose we examine the molecule CCNc1nc2c(ncn2C2CC(O)C(COP(=O)(O)O)O2)c(=O)[nH]1 (stereo not given) ; what TGI value has been reported? > 100 µM

Suppose we examine the molecule O=C1c2ccn(CCCCN3CCCCC3)c2C(=O)c2c1c(O)c1ccccc1c2O ; what TGI value has been reported? > 48.3 µM

Suppose we examine the molecule CC1CN=C(NS(=O)(=O)c2cc(C(=O)Nc3ccc(F)cc3)c(Cl)cc2S)NN1 (stereo not given) ; what TGI value has been reported? > 100 µM

Suppose we examine the molecule COC(=O)C1=C(O)CCCC(CCC(C)=O)=C1 ; what TGI value has been reported? > 100 µM

Suppose we examine the molecule N[C@@H]1CCCC[C@@H]1N.O=C([O-])CN(CP(=O)([O-])[O-])CP(=O)([O-])[O-].[Pt+2] ; what TGI value has been reported? > 100 µM

Suppose we examine the molecule C[C@@H]1OC(=O)C[C@H]2CC(=O)N(CCC3CN(S(=O)(=O)C(F)(F)F)c4ccccc43)C[C@@H]21 (stereo not given in full) ; what TGI value has been reported? > 100 µM

Suppose we examine the molecule Oc1c(I)cc(-c2nc3ccccc3s2)cc1CN(Cc1ccccn1)Cc1ccccn1 ; what TGI value has been reported? > 100 µM

Suppose we examine the molecule O=C(O)C1(Cc2ccc3c(c2)CCC3)Cc2ccccc2C1=O (stereo not given) ; what TGI value has been reported? > 100 µM
